Reference source: patent US9296723B2

Tested system: NAMPT (Homo sapiens)
Sequence (P43490 whole entry): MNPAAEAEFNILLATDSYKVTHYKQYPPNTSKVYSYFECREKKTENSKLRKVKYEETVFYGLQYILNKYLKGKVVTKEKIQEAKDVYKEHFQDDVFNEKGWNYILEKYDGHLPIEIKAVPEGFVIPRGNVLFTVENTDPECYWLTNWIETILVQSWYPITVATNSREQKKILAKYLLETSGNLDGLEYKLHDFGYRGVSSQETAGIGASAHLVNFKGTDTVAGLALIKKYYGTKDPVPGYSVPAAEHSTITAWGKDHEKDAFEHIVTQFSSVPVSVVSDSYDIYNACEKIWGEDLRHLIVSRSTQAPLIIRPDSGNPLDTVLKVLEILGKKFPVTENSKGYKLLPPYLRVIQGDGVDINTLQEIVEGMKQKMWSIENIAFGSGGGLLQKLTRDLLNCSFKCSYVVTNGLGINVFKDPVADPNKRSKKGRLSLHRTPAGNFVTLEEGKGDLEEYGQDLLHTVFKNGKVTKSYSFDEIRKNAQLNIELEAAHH
Protocol summary: Time-Resolved Fluorescence Resonance Energy Transfer (TR-FRET) Binding Assay of NAMPT
Condition label: 6.8 nM NAMPT, 200 nM probe, equilibrated 3 hours, no substrates
Observed property: log10 IC50 (log10 of the value in nM)
In plain terms, each number is the log10 of measured IC50 in nM.

compound="O=C(CCN1CCOCC1)N1CCC(c2ccc(NC(=O)N3CC(c4cccnc4)C3)cc2)C1 (stereo not drawn)" measured_result=1.82
compound=O=C(Nc1ccc(OC2CCN(C(=O)c3cccs3)CC2)cc1)N1CC(c2cccnc2)C1 measured_result=1.27
compound=CCCC(=O)N1CC[C@@H](Oc2ccc(NC(=O)N3CC(c4cccnc4)C3)cc2)C1 measured_result=1.30
compound=O=C(CC1CCCCC1)N1CC(c2ccc(NC(=O)N3CC(c4cccnc4)C3)cc2)C1 measured_result=1.61
compound="O=C(Nc1ccc(O[C@@H]2CCN(C(=O)C3CCOC3)C2)cc1)N1CC(c2cccnc2)C1 (stereo partly drawn)" measured_result=2.09

Q. Fill blank: measured log10 IC50 of the compound O=C(Nc1ccc(C2CCN(C(=O)c3ccsc3)C2)cc1)N1CC(c2cccnc2)C1 (stereo not drawn) is ____.
A. 1.56

Q. Lookup `CC(C)CCC(=O)N1CC(c2ccc(NC(=O)N3CC(c4cccnc4)C3)cc2)C1`
A. 1.64

Q. What about `CCOCC(=O)N1CCC(c2ccc(NC(=O)N3CC(c4cccnc4)C3)cc2)CC1` ?
A. 1.96

Q. Now the same for `O=C(Nc1ccc(OC2CCN(C(=O)C3CC3)CC2)cc1)N1CC(c2cccnc2)C1`
A. 1.48

Q. Now give it for `CC(C)C(=O)N1CC[C@H](Oc2ccc(NC(=O)N3CC(c4cccnc4)C3)cc2)C1` too.
A. 2.36

Q. Then what about the compound `O=C(Nc1ccc(OC2CN(C(=O)[C@H]3CCCO3)C2)cc1)N1CC(c2cccnc2)C1` ?
A. 1.89

Q. Cool, now COCC(=O)N1CCC(c2ccc(NC(=O)N3CC(c4cccnc4)C3)cc2)C1 (stereo not drawn)
A. 2.43
